src = PubChem BioAssay AID720504

So I've got a bunch of compounds here, and I need their max response, negative = inhibition values.
TARGET_OR_TEST_SYSTEM: Serine/threonine-protein kinase PLK1 (Homo sapiens) (UniProt P53350)
Sequence (P53350 whole entry, looked up, the tested form may be a part): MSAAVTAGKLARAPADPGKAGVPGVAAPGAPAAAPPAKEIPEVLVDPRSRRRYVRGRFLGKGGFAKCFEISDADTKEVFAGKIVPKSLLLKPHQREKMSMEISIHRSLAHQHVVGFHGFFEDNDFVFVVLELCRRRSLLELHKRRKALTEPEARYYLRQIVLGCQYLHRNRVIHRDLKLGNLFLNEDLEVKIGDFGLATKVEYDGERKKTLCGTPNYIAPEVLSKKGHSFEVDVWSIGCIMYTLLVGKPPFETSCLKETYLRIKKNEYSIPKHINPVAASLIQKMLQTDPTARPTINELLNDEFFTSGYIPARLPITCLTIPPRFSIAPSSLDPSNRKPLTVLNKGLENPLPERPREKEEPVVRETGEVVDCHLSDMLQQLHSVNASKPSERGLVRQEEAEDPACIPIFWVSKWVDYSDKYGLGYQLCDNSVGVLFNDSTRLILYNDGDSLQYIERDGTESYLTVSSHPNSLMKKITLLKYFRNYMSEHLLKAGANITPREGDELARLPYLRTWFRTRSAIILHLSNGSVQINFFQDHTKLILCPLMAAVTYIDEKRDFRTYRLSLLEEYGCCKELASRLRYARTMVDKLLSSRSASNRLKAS
EXPERIMENT: qHTS for Inhibitors of PLK1-PDB (polo-like kinase 1 - polo-box domain): Primary Screen; note: nearly all actives have a fitted effect of over 65% in size; for max response, negative = inhibition: series mostly up to about 57 µM; % is set by controls: 0 for no effect and ±100 for the full control effect
CONDITION_PARAMETERS: Plk1 PBD binding of FITC phosphopeptide, fluorescence polarization
The campaign covered roughly 360,000 compounds. About 10,000 (2.8%) were called active. Inconclusive results (about 4%) are left out. The list comes from a sample in which actives are over-represented; it also holds close analogues and randomly drawn compounds.
Answers are plain numbers, in %.

Worked examples, 2 compounds total:
| COMPOUND | TARGET_OR_TEST_SYSTEM | MEASUREMENT_UNITS | RECORDED_MEASUREMENT |
| --- | --- | --- | --- |
| CC(C)(C(=O)N1CCC1(C)C(=O)NS(=O)(=O)c1ccc(Br)cc1)c1ccccc1 (stereo not given) | Serine/threonine-protein kinase PLK1 (Homo sapiens) (UniProt P53350) | % | -7.26 |
| CCC(=O)N1CCCC1(C)C(=O)Nc1ccc2c(c1)CCN2C(C)=O (stereo not given) | Serine/threonine-protein kinase PLK1 (Homo sapiens) (UniProt P53350) | % | -12.6 |

Dear colleague, could you send me max response, negative = inhibition for each of the items below? Thanks.
1. CCOC(=O)C1CCN(C(=O)c2ccc3c(=O)n4nc(Nc5ccccc5CC)sc4nc3c2)CC1
2. OCC1OC(n2cnc3c(N4CCCC4)ncnc32)C(O)C1O (stereo not given)
3. O=C(C1=C(O)C(=O)N(c2ncccn2)C1c1cccs1)c1ccco1 (stereo not given)
4. CS(=O)(=O)c1cccc(-c2ccc3nncn3c2)c1

1: -1.87; 2: -0.393; 3: -18.5; 4: -8.79

Dear colleague, could you send me max response, negative = inhibition for each of the items below? Thanks.
1. CCOC(=O)C1=CC[C@@H](c2ccncc2)N(S(=O)(=O)c2ccc(C)cc2)C1
2. COC(=O)C1=CN(C)C=C(C(=O)OC)C1c1ccc(Cl)cc1Cl
3. COc1ccc(-c2cc(NC=O)c3ncc(-c4cc(OC)c(OC)c(OC)c4)n3c2)c(OC)c1
4. OC(c1cc(Cl)cc(Cl)c1)c1ncc(-c2ccccc2C(F)(F)F)[nH]1 (stereo not given)

-3.59
2.45
-18.1
4.04

----------
TARGET_OR_TEST_SYSTEM: Serine/threonine-protein kinase PLK1 (Homo sapiens)
EXPERIMENT: qHTS for Inhibitors of PLK1-PDB (polo-like kinase 1 - polo-box domain): Primary Screen; note: nearly all actives have a fitted effect of over 65% in size; note: potency is the fitted concentration of half-maximal effect
CONDITION_PARAMETERS: Plk1 PBD binding of FITC phosphopeptide, fluorescence polarization
The campaign covered roughly 360,000 compounds. About 10,000 (2.8%) were called active. Roughly 4% stayed inconclusive and do not appear here. This is one part of a sample in which actives are shown more often than they occur.
So I've got a bunch of compounds here, and I need their Potency values.

| COMPOUND | Potency |
| --- | --- |
| Cc1ccc2c(c1)C(c1ccccc1)N(C(=O)c1ccc(S(=O)(=O)N3CCOCC3)cc1)CC(=O)N2 (stereo not given) | 23.8 µM (active) |
| CCOC(=O)c1sc(NC(=O)CSc2nc(C)cc(C(F)(F)F)n2)c(C#N)c1C | 2.99 µM (active) |
| Nc1ccc(S(=O)(=O)Nc2nccc(/C=C/c3ccc(Br)s3)n2)cc1 | 9.47 µM (active) |
| COc1cccc(-c2nc(CS(=O)(=O)CC(=O)NCCc3ccc(OC)c(OC)c3)c(C)o2)c1 | 18.9 µM (active) |
| Cc1cccc(C)c1NC(=O)C1CCCN1C(=O)OC(C)(C)C (stereo not given) | 23.8 µM (active) |

Dear colleague, could you send me Potency for each of the items below? Thanks.
1. CCCCCn1c(SCCC(C)C)nc2c1c(=O)[nH]c(=O)n2C
2. CCN(CC)S(=O)(=O)c1ccc(N(C)Cc2ccc(C(F)(F)F)cc2)nc1
3. Oc1c(C(c2ccccn2)N2CCOCC2)ccc2cccnc12 (stereo not given)
4. CC(C)(C)c1cc(CN2CCN(CCC#N)CC2)cc(C(C)(C)C)c1O
5. CCc1ccccc1N(CC(=O)NCC1CCCO1)C(=O)CCC(=O)Nc1nccs1 (stereo not given)

1: 23.8 µM (active); 2: 29.9 µM (active); 3: 9.47 µM (active); 4: 8.44 µM (active); 5: 21.2 µM (active)
